This section presents compounds with their documented viability, T/C values.
- Tested on: 743489-274-T-PDC complex spheroid viability
- assay comment: Anticancer human tumor 743489-274-T-PDC patient-derived renal cell carcinoma cell line growth inhibition
- measurement parameters: second compound 0.316 µM; first compound 0.000316 µM; stronger effect = lower value
metric: viability, T/C (%)

>>> value_measured("CC(C)CC(NC(=O)CNC(=O)c1cc(Cl)ccc1Cl)B1OC(=O)CC(CC(=O)O)(C(=O)O)O1 (centres undefined) + NC1CC1c1ccc(-c2cccc(O)c2)cc1")
102
>>> value_measured("CC(C)CC(NC(=O)C(Cc1ccccc1)NC(=O)c1cnccn1)B(O)O (centres undefined) + NC1CC1c1ccc(-c2cccc(O)c2)cc1")
119
>>> value_measured("CC(C)CC(NC(=O)C(Cc1ccccc1)NC(=O)c1cnccn1)B(O)O (centres undefined) + NC1CCC(NC2CC2c2ccccc2)CC1")
119
>>> value_measured("Cn1ncnc1C1c2n[nH]c(=O)c3cc(F)cc(c23)NC1c1ccc(F)cc1 (centres undefined) + NC1CCC(NC2CC2c2ccccc2)CC1")
105

---

This section presents compounds with their documented IC50 values.
- Tested on: 743489-274-T-PDC complex spheroid viability
- assay comment: Anticancer human tumor 743489-274-T-PDC cell line growth inhibition;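 also: spheroids exposed to compounds for 7 days before readout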
- measurement parameters: curve of first compound; second compound 10 µM
metric: IC50 (nM)

>>> value_measured("CC(C)CC(NC(=O)C(Cc1ccccc1)NC(=O)c1cnccn1)B(O)O (centres undefined) + NC1CCC(NC2CC2c2ccccc2)CC1")
8.22
>>> value_measured("CC(C)CC(NC(=O)CNC(=O)c1cc(Cl)ccc1Cl)B1OC(=O)CC(CC(=O)O)(C(=O)O)O1 (centres undefined) + NC1CC1c1ccc(-c2cccc(O)c2)cc1")
49.9

---

This section presents compounds with their documented viability, T/C values.
- Test system: 743489-274-T-PDC complex spheroid viability
- assay comment: Anticancer human tumor 743489-274-T-PDC cell line growth inhibition;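 also: spheroids exposed to compounds for 7 days before readout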;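 as to viability, T/C: 100% = DMSO vehicle control wells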
- measurement parameters: second compound 3.16 µM; first compound 0.0949 µM; stronger effect = lower value
metric: viability, T/C

>>> value_measured("O=C(C=Cc1cccc(S(=O)(=O)Nc2ccccc2)c1)NO + NC1CCC(NC2CC2c2ccccc2)CC1")
"95.5%"
>>> value_measured("Nc1ncn(C2CC(O)C(CO)S2)c(=O)n1 (stereo unspecified) + NC1CC1c1ccc(-c2cccc(O)c2)cc1")
"75.1%"
>>> value_measured("NS(=O)(=O)OCC1CC(n2ccc3c(NC4CCc5ccccc54)ncnc32)CC1O (stereo unspecified) + NC1CCC(NC2CC2c2ccccc2)CC1")
"128%"
>>> value_measured("O=C(C=Cc1cccc(S(=O)(=O)Nc2ccccc2)c1)NO + NC1CC1c1ccc(-c2cccc(O)c2)cc1")
"90.8%"
>>> value_measured("CCN(c1cc(-c2ccc(CN3CCOCC3)cc2)cc(C(=O)NCc2c(C)cc(C)[nH]c2=O)c1C)C1CCOCC1 + NC1CCC(NC2CC2c2ccccc2)CC1")
"110%"
>>> value_measured("CCc1c2c(nc3ccc(O)cc13)-c1cc3c(c(=O)n1C2)COC(=O)[C@]3(O)CC + NC1CC1c1ccc(-c2cccc(O)c2)cc1")
"36.7%"
>>> value_measured("NS(=O)(=O)OCC1CC(n2ccc3c(NC4CCc5ccccc54)ncnc32)CC1O (stereo unspecified) + NC1CC1c1ccc(-c2cccc(O)c2)cc1")
"122%"
>>> value_measured("CCN(c1cc(-c2ccc(CN3CCOCC3)cc2)cc(C(=O)NCc2c(C)cc(C)[nH]c2=O)c1C)C1CCOCC1 + NC1CC1c1ccc(-c2cccc(O)c2)cc1")
"92.8%"
>>> value_measured("Nc1ccn(C2OC(CO)C(O)C2(F)F)c(=O)n1 (stereo unspecified) + NC1CC1c1ccc(-c2cccc(O)c2)cc1")
"44%"
>>> value_measured("COc1cc(C2c3cc4c(cc3C(OC3OC5COC(C)OC5C(O)C3O)C3COC(=O)C23)OCO4)cc(OC)c1O (stereo unspecified) + NC1CCC(NC2CC2c2ccccc2)CC1")
"115%"
>>> value_measured("Nc1ncn(C2CC(O)C(CO)S2)c(=O)n1 (stereo unspecified) + NC1CCC(NC2CC2c2ccccc2)CC1")
"88.4%"
>>> value_measured("CCc1c2c(nc3ccc(O)cc13)-c1cc3c(c(=O)n1C2)COC(=O)[C@]3(O)CC + NC1CCC(NC2CC2c2ccccc2)CC1")
"41.3%"
>>> value_measured("Nc1ccccc1NC(=O)c1ccc(CNC(=O)OCc2cccnc2)cc1 + NC1CC1c1ccc(-c2cccc(O)c2)cc1")
"81.6%"
>>> value_measured("Nc1ccccc1NC(=O)c1ccc(CNC(=O)OCc2cccnc2)cc1 + NC1CCC(NC2CC2c2ccccc2)CC1")
"97%"
>>> value_measured("COc1cc(C2c3cc4c(cc3C(OC3OC5COC(C)OC5C(O)C3O)C3COC(=O)C23)OCO4)cc(OC)c1O (stereo unspecified) + NC1CC1c1ccc(-c2cccc(O)c2)cc1")
"87.6%"
>>> value_measured("Nc1ccn(C2OC(CO)C(O)C2(F)F)c(=O)n1 (stereo unspecified) + NC1CCC(NC2CC2c2ccccc2)CC1")
"76.4%"

Hello, the source for this data is PubChem BioAssay AID1918942, in case you need it.
